// data source = ChEMBL document CHEMBL1135488

- Applied Conditions: pH 7.4
- Description: Fraction ionized (pH 7.4)
Simple rule here: Fraction ionised less than 0.8 is met, otherwise not met.

Worked cases, answers included:
Is Fraction ionised strictly under 0.8 for the entry COc1ccc2[nH]c([S+]([O-])Cc3ncc(C)c(OC)c3C)nc2c1 (racemic) ? met

Is Fraction ionised strictly under 0.8 for the entry Cc1nc2n(c(=O)c1CCN1CCC(c3noc4cc(F)ccc34)CC1)CCCC2 ? met

Is Fraction ionised strictly under 0.8 for the entry COCCc1ccc(OCC(O)CNC(C)C)cc1 (stereo not drawn) ? not met

Is Fraction ionised strictly under 0.8 for the entry CCCCCc1cc(O)c2c(c1)OC(C)(C)[C@@H]1CCC(C)=C[C@@H]21 ? met

---
Is Fraction ionised strictly under 0.8 for the entry CCN(CC)CC(=O)Nc1c(C)cccc1C ? met

Is Fraction ionised strictly under 0.8 for the entry CN1C(=O)CN=C(c2ccccc2)c2cc(Cl)ccc21 ? met

Is Fraction ionised strictly under 0.8 for the entry OC(Cn1cncn1)(Cn1cncn1)c1ccc(F)cc1F ? met

Is Fraction ionised strictly under 0.8 for the entry CN1CC[C@]23c4c5ccc(O)c4O[C@H]2[C@@H](O)C=C[C@H]3[C@H]1C5 ? not met

Is Fraction ionised strictly under 0.8 for the entry CC(C)(C)NCC(O)c1cc(O)cc(O)c1 (stereo not drawn) ? not met
